These data points were gathered from PubChem BioAssay.

The entries below are paired with their reported z-score.
experiment: E. coli acrAB mutant growth effects, primary screen, E. coli filamentation inducers, strain DRC39, OD650, 48 h (AID 1179);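 further: screen aims at cell division blockers that make cells filament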; details: E. coli DRC39 delta-acrAB growth, higher = more signal, called active from +8 up or from −8 down

>  <molecule>
COC(=O)[C@@]1(Cc2ccc(F)cc2)[C@H]2c3cc(C(=O)N(C)C)n(Cc4ccsc4Br)c3C[C@H]2CN1C(=O)c1ccccc1

>  <z-score>
-0.85

$$$$
>  <molecule>
COCCOC(=O)N1C(=O)[C@@]2(c3cc(C#CC4=CCCCC4)ccc31)[C@H](C(=O)N1CCCCCCC1)[C@H]1C(=O)O[C@H](c3ccccc3)[C@H](c3ccccc3)N1[C@@H]2c1ccccc1OCCO

>  <z-score>
-1.14

$$$$
>  <molecule>
COC(=O)C1=CC(CCCO)=CC(c2ccc(CN3CCCC3)cc2)N(C)C=C1C(=O)OC (configuration not stated)

>  <z-score>
1.32

$$$$
>  <molecule>
O=C1NC(=O)C2C1C=CC(C(O)C(O)CO)N2Nc1ccccn1 (configuration not stated)

>  <z-score>
0.61

$$$$
>  <molecule>
[N-]=[N+]=Nc1ccccc1C[C@]1(C(=O)N2CCCCC2)N=C(c2ccc(OCCCO)cc2)O[C@H]1c1ccccc1

>  <z-score>
0.647

$$$$
>  <molecule>
O=C1OC[C@@H](c2ccccc2)n2cc(/C=C/c3ccccc3)cc21

>  <z-score>
-0.733

$$$$
>  <molecule>
CC(C)N1C(=O)[C@@]2(Cc3ccccc31)c1ccccc1C(=O)N(Cc1ccccc1C(F)(F)F)[C@H]2c1ccc(CO)cc1

>  <z-score>
-0.818

$$$$
>  <molecule>
O=C/C=C/c1ccc(-c2ccccc2)cc1

>  <z-score>
0.917

$$$$
>  <molecule>
CC(C)C[C@H]1NC(=O)CNC(=O)[C@@]23C(=O)N[C@@H](Cc4ccccc4)C2[C@H](C)[C@@]2(C)O[C@H]2C3/C=C/C/C=C\CNC1=O (some centres not stated)

>  <z-score>
-0.141

$$$$
>  <molecule>
Cc1ccc(S[C@]2(C(=O)NCc3ccccc3)CC(=O)N(Cc3ccccc3C(F)(F)F)[C@@H]2c2ccc(CO)cc2I)cc1

>  <z-score>
-0.0277

$$$$
>  <molecule>
C=CCNC(=O)[C@H]1[C@@H]2C(=O)O[C@@H](c3ccccc3)[C@@H](c3ccccc3)N2[C@@H](c2ccc(OCCO)cc2)[C@]12C(=O)N(C(=O)OCCOC)c1ccc(C#CCC(C(=O)OC)C(=O)OC)cc12

>  <z-score>
0.475

$$$$
>  <molecule>
C=CCOC(=O)[C@H]1[C@@H]2C(=O)O[C@@H](c3ccccc3)[C@@H](c3ccccc3)N2[C@@H](c2ccc(OCCOC(=O)[C@@H]3C[C@@H]4C(=O)N[C@@H](Cc5ccccc5)C(=O)N4[C@@H]3c3ccc(O)cc3)cc2)[C@]12C(=O)Nc1ccc(I)cc12

>  <z-score>
-0.508

$$$$
>  <molecule>
C=CCC(OC(C)=O)[C@@H]1[C@@H](N(Cc2cccc3ccccc23)C(=O)c2ccc(C)cc2)c2cc(OCCCO)ccc2N1C(=O)Cc1ccc2ccccc2c1 (some centres not stated)

>  <z-score>
1.28

$$$$
>  <molecule>
CN(C)CCCCCCNC(=O)[C@@H]1C[C@@H]2C(=O)N[C@@H](CCCC[N+](C)(C)C)C(=O)N2[C@@H]1c1cccc(OCCO)c1

>  <z-score>
1.62

$$$$
>  <molecule>
COC(=O)[C@H](Cc1ccccc1)N1CC(C)(OC)O[C@@H](Cc2ccccc2)[C@H]1/C=C/C1CC1 (some centres not stated)

>  <z-score>
0.215

$$$$
>  <molecule>
O=C1O[C@H](c2ccccc2)[C@H](c2ccccc2)N2[C@H]1[C@@H](C(=O)N1CCCCCCC1)[C@]1(C(=O)Nc3ccc(C#CCCO)cc31)[C@H]2c1ccc(O)cc1

>  <z-score>
0.721

$$$$
>  <molecule>
COc1ccc(C(O)C2C=CC3C(=O)N(c4ccccc4)C(=O)C3N2Nc2ccccc2F)c2ccccc12 (configuration not stated)

>  <z-score>
-0.617

$$$$
>  <molecule>
CC(C)[Si]1(C(C)C)OCc2cc(-c3ccc(-c4ccc(Cl)c(Cl)c4)o3)nc(-c3ccc(Oc4ccccc4)cc3)c21

>  <z-score>
-0.262

$$$$
>  <molecule>
COC(=O)c1c2oc(c1C(=O)OC)C(=O)N[C@H](Cc1ccccc1)Cn1cc(nn1)C1(CCCCC1)NC(=O)N[C@H](CO)CC2

>  <z-score>
0.565

$$$$
>  <molecule>
[N-]=[N+]=NCc1ccccc1[C@H]1OC(c2ccc(OCCCO)cc2)=N[C@@]1(CCS(=O)(=O)c1ccccc1)C(=O)O

>  <z-score>
-0.336

$$$$
>  <molecule>
C=CCN1C(=O)[C@@]2(O[C@@H](CCO)[C@H]([Si](C)(C)c3ccc(OC)cc3)[C@H]2C)c2cc(N3CCCCC3=O)ccc21

>  <z-score>
0.777

$$$$
>  <molecule>
O=C1O[C@H](c2ccccc2)[C@H](c2ccccc2)N2[C@H]1[C@@H](C(=O)N1CCN(c3ncccn3)CC1)[C@]1(C(=O)Nc3ccc(C#CC4(O)CCCCCC4)cc31)[C@H]2c1ccc(O)cc1

>  <z-score>
1.31

$$$$
>  <molecule>
CCc1cccc(NC(=O)O[C@H]2[C@H](OC(=O)Nc3ccccc3-c3ccccc3)[C@H](OC(=O)Nc3ccccc3-c3ccccc3)[C@@H](OC)O[C@@H]2CO)c1

>  <z-score>
-1.66

$$$$
>  <molecule>
C=CC[C@H](OC(=O)Nc1ccc(SC)cc1)c1ccc(O)c(F)c1

>  <z-score>
-0.343

$$$$
>  <molecule>
CN1C(=O)C2C=CC(C(O)c3ccc([N+](=O)[O-])cc3)N(Nc3ccccc3)C2C1=O (configuration not stated)

>  <z-score>
-1.16

$$$$
>  <molecule>
[N-]=[N+]=NCc1ccccc1[C@H]1OC(c2ccc(OCCCO)cc2)=N[C@@]1(CCS(=O)(=O)c1ccccc1)C(=O)NCCN1CCOCC1

>  <z-score>
-0.35

$$$$
>  <molecule>
COC(=O)[C@@]1(Cc2ccc(F)cc2)[C@H]2c3cc(C(=O)N(C)C)n(Cc4cccc5ccccc45)c3C[C@H]2CN1C(=O)c1ccccc1

>  <z-score>
-0.707

$$$$
